Each recorded value in this set is attributed to paper PMC11548477.

- studySystem: aminopeptidase B and cathepsin H-like activity (R-AMC cleavage) in crude protein extract from barley leaves
- testName: R-AMC cleavage by crude protein extract from barley leaves
- Assay type: biochemical, Hordeum vulgare
- statedConditions: pH 7.4; week-3 leaf extract; 'No inhibition up to X' given as > X
pIC50: −log10 of the molar value. Where a SMILES comes first, the peptide text is derived from it. [ ]: non-standard residue; d: D form. The star is where a group is joined. Sta = CC(C)C[C@H](N)[C@@H](O)CC(=O)O; Isovaleryl = CC(C)CC(=O)*
Recorded pIC50 by entry

# molecule, pIC50
data = [
    ("CC(C)C[C@H](NC(=O)[C@@H](O)[C@H](N)Cc1ccccc1)C(=O)O", 3.24),
    ("CCCNC(=O)[C@H]1O[C@@H]1C(=O)N[C@H](C(=O)N1CCC[C@H]1C(=O)O)[C@@H](C)CC", "< 3.70"),
    ("O=S(=O)(F)Cc1ccccc1 [PMSF, Phenylmethylsulfonyl fluoride]", "< 2.70"),
    ("O=C(NCc1ccccc1)C(Cc1ccccc1)NC(=O)C1OC1C(=O)NCCc1ccc(O)cc1 (stereo not drawn)", "< 3.70"),
    ("CC(C)CC(=O)N[C@H](C(=O)N[C@H](C(=O)N[C@@H](CC(C)C)[C@@H](O)CC(=O)N[C@@H](C)C(=O)N[C@@H](CC(C)C)[C@@H](O)CC(=O)O)C(C)C)C(C)C [Pepstatin A] (Isovaleryl-VV[Sta]A[Sta]-OH)", "< 3.70"),
    ("CC(=O)N[C@@H](CC(C)C)C(=O)N[C@@H](CC(C)C)C(=O)N[C@H](C=O)CCCNC(=N)N", "< 3.40"),
]

###

- studySystem: 43 kDa DCG-04-labeled cysteine protease band (cathepsin L-like protease or proteases)
- testName: inhibition of DCG-04 binding (activity-based labeling), 43 kDa band
- statedConditions: densitometric analysis of blots; 2.5 μM DCG-04, pH 5.5, 3 h; week-4 leaf extract

# compound, IC50 / nM
measured = [
    ("CCCNC(=O)[C@H]1O[C@@H]1C(=O)N[C@H](C(=O)N1CCC[C@H]1C(=O)O)[C@@H](C)CC", 26400),
    ("O=C(NCc1ccccc1)C(Cc1ccccc1)NC(=O)C1OC1C(=O)NCCc1ccc(O)cc1 (stereo not drawn)", 290),
    ("CC(C)C[C@H](NC(=O)[C@H]1O[C@@H]1C(=O)O)C(=O)NCCCCNC(=N)N", 48),
]

###

- studySystem: aminopeptidase B and cathepsin H-like activity (R-AMC cleavage) in crude protein extract from barley leaves
- testName: R-AMC cleavage by crude protein extract from barley leaves
- Format: biochemical, Hordeum vulgare
- statedConditions: pH 5.5; week-3 leaf extract; 'No inhibition up to X' given as > X
experimentalReadout: IC50

# compound, valueMeasured
measured = [
    ("CCCNC(=O)[C@H]1O[C@@H]1C(=O)N[C@H](C(=O)N1CCC[C@H]1C(=O)O)[C@@H](C)CC", "> 200 µM"),
    ("O=C(NCc1ccccc1)C(Cc1ccccc1)NC(=O)C1OC1C(=O)NCCc1ccc(O)cc1 (centres unmarked)", "> 200 µM"),
]

###

- Test system: cathepsin B-like activity (Z-RR-AMC cleavage) in crude protein extract from barley leaves
- testName: Z-RR-AMC cleavage by crude protein extract from barley leaves
- Format: biochemical, Hordeum vulgare
- statedConditions: pH 5.5; week-4 leaf extract; read-out: IC50, Z-RR-AMC cleavage
pIC50: −log10 of the molar value.
Recorded pIC50 by entry

# compound, pIC50
records = [
    ("CCCNC(=O)[C@H]1O[C@@H]1C(=O)N[C@H](C(=O)N1CCC[C@H]1C(=O)O)[C@@H](C)CC [CA-074]", 4.64),
    ("O=C(NCc1ccccc1)C(Cc1ccccc1)NC(=O)C1OC1C(=O)NCCc1ccc(O)cc1 (stereo not drawn) [CAA0225]", 7.04),
    ("CC(C)C[C@H](NC(=O)[C@H]1O[C@@H]1C(=O)O)C(=O)NCCCCNC(=N)N [E-64]", 8.21),
]
